experimental_target: Vasoactive intestinal polypeptide receptor 2 (Homo sapiens) (UniProt P41587)
Sequence (whole entry): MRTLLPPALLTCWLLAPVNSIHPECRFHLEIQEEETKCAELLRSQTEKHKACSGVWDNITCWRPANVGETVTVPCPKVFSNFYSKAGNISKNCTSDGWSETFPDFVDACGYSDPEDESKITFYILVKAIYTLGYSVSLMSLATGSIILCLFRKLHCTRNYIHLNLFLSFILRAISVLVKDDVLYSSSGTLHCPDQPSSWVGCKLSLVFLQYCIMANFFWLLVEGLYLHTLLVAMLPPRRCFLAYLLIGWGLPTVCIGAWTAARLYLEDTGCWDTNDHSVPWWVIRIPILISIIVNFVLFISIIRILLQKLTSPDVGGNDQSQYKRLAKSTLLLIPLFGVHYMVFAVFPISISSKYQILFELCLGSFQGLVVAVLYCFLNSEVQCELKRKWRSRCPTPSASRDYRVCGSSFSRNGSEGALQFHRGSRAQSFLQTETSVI
assay_name: Antagonist activity at recombinant human N-terminal signal peptide/FLAG epitope-tagged VIPR2 expressed in HEK293 cells co-expressing CAMYEL assessed as inhibition of VIP-induced cAMP accumulation at 5 uM preincubated for 5 mins with luciferin, coelenterazine H followed by VIP addition measured after 5 mins by BRET assay relative to control
Assay type: functional, cell-based
property_label: inhibition (%)

> print(dat)
                                 mol.smiles  reported.value
1  O=C([C@H](Cc1ccccc1)C[C@H](O)CNS(=O)(=O)c1ccc([N+](=O)[O-])cc1)N1CCC(CO)CC1             6.2

A: CCCCCNc1ccc(S(=O)(=O)NC[C@@H](O)C[C@@H](Cc2ccccc2)C(=O)N[C@H]2c3ccccc3C[C@H]2O)cc1
B: Cc1cc(S(=O)(=O)NC[C@@H](O)C[C@@H](Cc2ccccc2)C(=O)N[C@H]2c3ccccc3C[C@H]2O)c(C)cc1Cl
C: O=C([C@@H](Cc1ccccc1)C[C@H](O)CNS(=O)(=O)c1ccc([N+](=O)[O-])cc1)N1CCCCC1
Task field, ranking: reported inhibition, descending order. List labels; respect the requested ordering.
B, A, C
(B: 41.1%, A: 19.1%, C: 9.4%)

I: O=C(CCCCBr)NC[C@@H](O)C[C@@H](Cc1ccccc1)C(=O)N[C@H]1c2ccccc2C[C@H]1O
II: O=C(NC[C@@H](O)C[C@@H](Cc1ccccc1)C(=O)N[C@H]1c2ccccc2C[C@H]1O)c1cccc([N+](=O)[O-])c1
# query: argmin of inhibition over I and II API: response body contains the label of the selected item.
I

Data provenance: ChEMBL document CHEMBL3879914
